Data provenance: ChEMBL document CHEMBL1201862

Tested on: BT-549
method summary: NCI tumour cell line growth inhibition, 48 h
Calls of active or inactive are those of the source. No stated cut-off is given here; in the data, active = GI50 up to about 1.1 µM and inactive = higher.
// allowed return values: active, inactive

| compound | label value |
| --- | --- |
| CC12O[C@]3([C@H](C(=O)N4CCOC43C)[C@H]1Cl)[C@H]1O[C@H]12 (some centres undefined) | inactive |
| O=C(C[C@@H]1NCCC[C@H]1O)Cn1cnc2cc(Br)c(Cl)cc2c1=O | active |
| Cc1ccc2c(=O)cc(Cc3csc4ccccc34)[nH]c2n1 | inactive |
| O=C(O)c1ccc(N2C=[N+]3C(=Nc4ccccc43)C2)cc1 | inactive |
| COc1cc2c(cc1O)Cc1c-2[n+](C)cc2cc(OC)c(OC)cc12 | inactive |

Challenge: Would you mind telling me which call this test gave `OC(CC(CC(O)(C(F)(F)Cl)C(F)(F)Cl)=NNc1ccccc1)(C(F)(F)Cl)C(F)(F)Cl` ?
Response given: inactive

Challenge: Would you mind telling me which call this test gave `CCCS(=O)(=O)Nc1ccc(Nc2c3ccccc3nc3ccccc23)c(OC)c1` ?
Response given: inactive

Challenge: Would you mind telling me which call this test gave `COc1cc(OC)cc(OCc2ccc3nc(-c4ccccc4)c(Cl)nc3c2)c1` ?
Response given: inactive

Challenge: Would you mind telling me which call this test gave `S=C(N/N=C\c1ccccn1)N(Cc1ccccn1)Cc1ccccn1` ?
Response given: inactive

Challenge: Would you mind telling me which call this test gave `O=C(Nc1ccccc1)c1cc2c(cc1Cl)Sc1nccn1S2(=O)=O` ?
Response given: inactive

Challenge: Would you mind telling me which call this test gave `CCN=C=NCCCN(C)C` ?
Response given: inactive

Challenge: Would you mind telling me which call this test gave `COc1ccc(-c2c3c(nc4nc(SC)nc(SC)c24)CCCC3)cc1OC` ?
Response given: inactive

Challenge: Would you mind telling me which call this test gave `O=C(/C=C1/Nc2ccc([N+](=O)[O-])cc2N/C1=C/C(=O)c1ccc(Cl)cc1)c1ccccc1` ?
Response given: inactive

Challenge: Would you mind telling me which call this test gave C=CC(O)(CBr)CCC(Br)C(C)(C)Cl (centres undefined) ?
Response given: inactive

Challenge: Would you mind telling me which call this test gave `CCCN(CCC)CCc1ccc(OC2=CCN(C)CC2)cc1` ?
Response given: inactive

Challenge: Would you mind telling me which call this test gave `O=[N+]([O-])/C(C(Cl)=C(Cl)Cl)=C(/Sc1ccccc1)N1CCOCC1` ?
Response given: inactive

Challenge: Would you mind telling me which call this test gave Cc1c(/N=N/c2ccccc2)c(-c2ccccc2)n(C2OC(CO)C(O)C(O)C2O)c(=S)c1C#N (centres undefined) ?
Response given: inactive

Challenge: Would you mind telling me which call this test gave Cc1cn(C(CO)OC(CO)CN(O)C2C3CC4CC(C3)CC2C4)c(=O)[nH]c1=O (centres undefined) ?
Response given: inactive

Challenge: Would you mind telling me which call this test gave `CC(C)CNC(=O)c1c(NC(=O)c2ccccc2)sc2[nH]c(=O)n(-c3ccccc3)c(=O)c12` ?
Response given: inactive

Challenge: Would you mind telling me which call this test gave C=C(c1ccccc1)C1ON(C)CCc2cc(OC)c(OC)cc21 (centres undefined) ?
Response given: inactive

Challenge: Would you mind telling me which call this test gave `CCOC(=O)CCc1c(C)c2ccc(O)cc2oc1=O` ?
Response given: inactive

Challenge: Would you mind telling me which call this test gave O=S(=O)(c1cccc(C(F)(F)F)c1)N1c2ccccc2-n2cccc2C1c1cccnc1 (centres undefined) ?
Response given: inactive

Challenge: Would you mind telling me which call this test gave `C[C@@H]1C[C@@]2(O[C@@H]2C)C(=O)O[C@@H]2CCN3CC=C(COC(=O)[C@]1(C)O)[C@H]23` ?
Response given: inactive
